target: Endothelin-1 receptor (Homo sapiens, UniProt P25101); assay: Antagonist activity at ETA receptor (unknown origin)
MEASURE: IC50 (nM)
Numbers only; they are read as nM.

Need IC50 of COc1ccccc1Oc1c(NS(=O)(=O)CCc2ccccc2)nc(-c2ncccn2)nc1OCCO , thanks.
25

Now the compound COc1ccccc1Oc1c(NS(=O)(=O)c2ccc(C(C)C)cc2)nc(C(F)(F)F)nc1OCCO
26

---

What IC50 was measured for each of the following?
target: Endothelin-1 receptor (Homo sapiens, UniProt P25101); assay: Displacement of radioligand from ETA receptor (unknown origin) expressed in fall armyworm sf9 cell membranes
Be sure to follow the number with its unit.

Using the record for CC(C)(C)c1ccc(S(=O)(=O)Nc2nc(-c3ncccn3)nc(OCCO)c2Oc2ccccc2O)cc1 , report its IC50.
26 µM

Now the compound COc1ccccc1Oc1c(NS(=O)(=O)c2ccc(C(C)(C)C)cc2)nc(-c2ccccc2)nc1OCCO
0.8 µM

Let us now turn to O=S(=O)(Nc1ncnc(OCCO)c1-c1ccc(Cl)cc1)c1ccc(C(F)(F)F)cc1
18 µM

How about COc1ccccc1Oc1c(NS(=O)(=O)c2ccccc2)nc(-c2ncccn2)nc1OCCO ?
1.5 µM

---

Target: Endothelin-1 receptor (Homo sapiens, UniProt P25101)
Sequence (P25101 whole entry): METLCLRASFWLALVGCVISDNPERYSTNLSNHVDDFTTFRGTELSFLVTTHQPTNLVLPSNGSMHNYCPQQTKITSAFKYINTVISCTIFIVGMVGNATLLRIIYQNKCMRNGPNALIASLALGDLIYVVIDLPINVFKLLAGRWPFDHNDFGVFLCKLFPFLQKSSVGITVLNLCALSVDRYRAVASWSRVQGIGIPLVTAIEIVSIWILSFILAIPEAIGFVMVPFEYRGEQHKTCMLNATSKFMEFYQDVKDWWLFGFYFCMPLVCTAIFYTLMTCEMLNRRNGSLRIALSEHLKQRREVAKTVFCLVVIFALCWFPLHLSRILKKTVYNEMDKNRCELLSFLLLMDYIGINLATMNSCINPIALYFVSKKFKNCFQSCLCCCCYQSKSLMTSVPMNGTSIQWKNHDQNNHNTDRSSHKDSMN
Experiment: Displacement of [125I]-ET-1 from human ETA receptor expressed in CHO cell membranes after 2 hrs by scintillation counting
MEASURE: log10(IC50) (log10 of the value in nM)
Log10 applied to IC50; unit prior to transform: nM.

# get_value(readout='log10(IC50)', item= CCCNS(=O)(=O)Nc1ncnc(OCCOc2ncc(SC)cn2)c1Oc1cccc(OC)c1 )
0.15

What would you report for CCCCNS(=O)(=O)Nc1ncnc(OCCOc2ncc(SC)cn2)c1-c1ccc(Br)cc1 ?
-0.52

Follow-up entry: COc1ccccc1Oc1c(NS(=O)(=O)c2ccc(C)cn2)nc(-c2ccnc(-c3noc(=S)[nH]3)c2)nc1OCC1CCCO1 (configuration not stated)
0.78

Now consider Cc1ccc(-c2c(NS(=O)(=O)/C=C/c3ccccc3)ncnc2OCCOc2ncc(Br)cn2)cc1 and answer again.
0.30

Queued: O=C(O)CCNS(=O)(=O)Nc1ncnc(OCCOc2ncc(Br)cn2)c1-c1ccc(Br)cc1
-0.15

// repeat for CCCNS(=O)(=O)Nc1ncnc(OCCOc2ncc(SC)cn2)c1-c1ccc(Br)cc1 and report
-1.00

Record: COc1ccccc1Oc1c(NS(=O)(=O)CCc2cccs2)nc(N2CCOCC2)nc1OCCOC(=O)Nc1ccccn1
0.00
